test: Plasma concentrations and pharmacokinetic parameters after topical ocular, subcutaneous and intravitreal administration; type: in vivo, New Zealand White rabbits; conditions: New Zealand White, rabbit, plasma, subcutaneous, 5 mg/kg/dose, subcutaneous 5 mg/kg/dose, suspension; 0.50 hr; read-out: plasma Average
endpoint: concentration at 0.5 hr (ng/mL)
A number alone suffices; assume ng/mL.

Form field: reported concentration at 0.5 hr of COC(=O)N[C@@H](Cc1ccccc1)C(=O)N[C@@H](Cc1ccc(NS(=O)(=O)O)cc1)c1csc(-c2cccs2)n1 [Compound 1 free acid]
337

###

assay: Ocular tissue concentrations (aqueous humor, vitreous humor, iris, retina, choroid, cornea) after topical ocular, subcutaneous and intravitreal administration; format: in vivo, New Zealand White rabbits; conditions: New Zealand White, rabbit, vitreous humor, subcutaneous, 5 mg/kg, Group 3 subcutaneous 5 mg/kg; 4.0 hr; read-out: vitreous humor Conc., individual eyes (OD, OS)
endpoint: concentration at 4 hr

Recorded concentration at 4 hr of COC(=O)N[C@@H](Cc1ccccc1)C(=O)N[C@@H](Cc1ccc(NS(=O)(=O)O)cc1)c1csc(-c2cccs2)n1 [Compound 1 free acid] , please.
0.408 ng/mL

###

test: Ocular tissue concentrations (aqueous humor, vitreous humor, iris, retina, choroid, cornea) after topical ocular, subcutaneous and intravitreal administration; assay type: in vivo, New Zealand White rabbits; conditions: New Zealand White, rabbit, choroid, other: intravitreal, 2.5 mg/eye, Choroid, 24 hr, OD; sodium salt, intravitreal 2.5 mg/eye, Group 4; read-out: Choroid Conc. (ng/g) OD
endpoint: concentration at 24 hr

State the recorded concentration at 24 hr for this entry: COC(=O)N[C@@H](Cc1ccccc1)C(=O)N[C@@H](Cc1ccc(NS(=O)(=O)O)cc1)c1csc(-c2cccs2)n1 [Compound 1]
130000 ng/g

###

assay: Plasma concentrations and pharmacokinetic parameters after topical ocular, subcutaneous and intravitreal administration; type: in vivo, New Zealand White rabbits; conditions: New Zealand White, rabbit, plasma, other: intravitreal, 1.54 mg/kg, plasma; intravitreal 2.5 mg/eye (~1.54 mg/kg), suspension
endpoint: AUC(0-inf) (ng·h/mL)
# unit: ng·h/mL | format: bare number

Looking for the measured AUC(0-inf) of COC(=O)N[C@@H](Cc1ccccc1)C(=O)N[C@@H](Cc1ccc(NS(=O)(=O)O)cc1)c1csc(-c2cccs2)n1 [Compound 1 free acid] , can you help?
746

###

experiment: Ocular tissue concentrations (aqueous humor, vitreous humor, iris, retina, choroid, cornea) after topical ocular, subcutaneous and intravitreal administration; type: in vivo, New Zealand White rabbits; conditions: New Zealand White, rabbit, vitreous humor, other: intravitreal, 2.5 mg per eye, Group 5 intravitreal 2.5 mg per eye; 72 hr; read-out: vitreous humor Average Conc.
endpoint: concentration at 72 h (ng/g)
Quick reminder: number only, in ng/g, skip the unit.

Which concentration at 72 h is listed for COC(=O)N[C@@H](Cc1ccccc1)C(=O)N[C@@H](Cc1ccc(NS(=O)(=O)O)cc1)c1csc(-c2cccs2)n1 [Compound 1 free acid] ?
65400

###

assay: Ocular tissue concentrations (aqueous humor, vitreous humor, iris, retina, choroid, cornea) after topical ocular, subcutaneous and intravitreal administration; format: in vivo, New Zealand White rabbits; conditions: New Zealand White, rabbit, choroid homogenate, other: intravitreal, 2.5 mg/eye, Choroid homogenate, 48 hr, OS; sodium salt, intravitreal 2.5 mg/eye, Group 4; read-out: Choroid Conc. (ng/mL) OS
endpoint: concentration at 48 hr

Requested field: concentration at 48 hr. Item: COC(=O)N[C@@H](Cc1ccccc1)C(=O)N[C@@H](Cc1ccc(NS(=O)(=O)O)cc1)c1csc(-c2cccs2)n1 [Compound 1]
3740 ng/mL

###

Test: Ocular tissue concentrations (aqueous humor, vitreous humor, iris, retina, choroid, cornea) after topical ocular, subcutaneous and intravitreal administration
Type: in vivo, New Zealand White rabbits
Conditions: New Zealand White, rabbit, retina, subcutaneous, 5 mg/kg/dose, Retina, 2 hr, OS; sodium salt, subcutaneous 5 mg/kg/dose, Group 2; read-out: Retina Conc. (ng/g) OS
Procedure: To measure the concentration of Compound 1 in plasma and ocular tissues following topical ocular, subcutaneous, and intravitreal administration, New Zealand White rabbits were administered Compound 1, and plasma and ocular samples were collected at pre-determined time points. […] Ocular tissue samples from both eyes of each animal were collected and weights were recorded. Plasma and ocular tissue sample concentrations of Compound 1 were determined by LC-MS/MS. […]
endpoint: concentration at 2 h (ng/g)
Report as a plain number; the unit ng/g is understood.

# input molecule: COC(=O)N[C@@H](Cc1ccccc1)C(=O)N[C@@H](Cc1ccc(NS(=O)(=O)O)cc1)c1csc(-c2cccs2)n1 ; wanted: its concentration at 2 h
17.8

###

test: Ocular tissue concentrations (aqueous humor, vitreous humor, iris, retina, choroid, cornea) after topical ocular, subcutaneous and intravitreal administration; format: in vivo, New Zealand White rabbits; settings: New Zealand White, rabbit, retina homogenate, other: intravitreal, 2.5 mg/eye, Retina homogenate, 6.0 hr, left eye, intravitreal 2.5 mg/eye (group 5), individual animals; read-out: Conc. (ng/mL) OS
endpoint: concentration at 6 h (ng/mL)
Use ng/mL as the unit, but write only the number.

Data request, read-out concentration at 6 h, for COC(=O)N[C@@H](Cc1ccccc1)C(=O)N[C@@H](Cc1ccc(NS(=O)(=O)O)cc1)c1csc(-c2cccs2)n1 [Compound 1]
154000

###

experiment: Ocular tissue concentrations (aqueous humor, vitreous humor, iris, retina, choroid, cornea) after topical ocular, subcutaneous and intravitreal administration; format: in vivo, New Zealand White rabbits; settings: New Zealand White, rabbit, retina homogenate, subcutaneous, 5 mg/kg/dose, Retina homogenate, 2 hr, OD; sodium salt, subcutaneous 5 mg/kg/dose, Group 2; read-out: Retina Conc. (ng/mL) OD
endpoint: concentration at 2 h (ng/mL)
Form entry: value (ng/mL) — number only.

If you can, please state the reported concentration at 2 h value of COC(=O)N[C@@H](Cc1ccccc1)C(=O)N[C@@H](Cc1ccc(NS(=O)(=O)O)cc1)c1csc(-c2cccs2)n1 .
1.36

###

assay: Ocular tissue concentrations (aqueous humor, vitreous humor, iris, retina, choroid, cornea) after topical ocular, subcutaneous and intravitreal administration; assay type: in vivo, New Zealand White rabbits; conditions: New Zealand White, rabbit, vitreous humor, topical, 1.2 mg/eye, Group 1 topical ocular 1.2 mg/eye; 2.0 hr; read-out: vitreous humor Conc., individual eyes (OD, OS)
Structures can show the parent of a compound that is named as a salt.
endpoint: concentration at 2 hr
Record the result as number plus unit.

# concentration at 2 hr lookup, item COC(=O)N[C@@H](Cc1ccccc1)C(=O)N[C@@H](Cc1ccc(NS(=O)(=O)O)cc1)c1csc(-c2cccs2)n1 [Compound 1 sodium salt]
1.14 ng/mL

###

assay: Plasma concentrations and pharmacokinetic parameters after topical ocular, subcutaneous and intravitreal administration; assay type: in vivo, New Zealand White rabbits; conditions: New Zealand White, rabbit, plasma, other: intravitreal, 2.5 mg/eye, intravitreal 2.5 mg/eye (~1.55 mg/kg), solution; 24.0 hr; read-out: plasma Conc., individual rabbit
Where a name gives a salt, the structure may show the parent alone.
endpoint: concentration at 24 hr (ng/mL)
Lab book: enter the figure in ng/mL, no units written.

Give its concentration at 24 hr value. Item: COC(=O)N[C@@H](Cc1ccccc1)C(=O)N[C@@H](Cc1ccc(NS(=O)(=O)O)cc1)c1csc(-c2cccs2)n1 [Compound 1 sodium salt]
19

###

assay: Ocular tissue concentrations (aqueous humor, vitreous humor, iris, retina, choroid, cornea) after topical ocular, subcutaneous and intravitreal administration; format: in vivo, New Zealand White rabbits; conditions: New Zealand White, rabbit, aqueous humor, subcutaneous, 5 mg/kg, Group 2 subcutaneous 5 mg/kg; 2.0 hr; read-out: aqueous humor Conc., individual eyes (OD, OS)
Counter-ions that a name gives are not always drawn.
endpoint: concentration at 2 h (ng/mL)
Provide the reading as a plain figure in ng/mL.

I am curious: what concentration at 2 h value has been reported for COC(=O)N[C@@H](Cc1ccccc1)C(=O)N[C@@H](Cc1ccc(NS(=O)(=O)O)cc1)c1csc(-c2cccs2)n1 [Compound 1 sodium salt] ?
0.581

###

test: Plasma concentrations and pharmacokinetic parameters after topical ocular, subcutaneous and intravitreal administration; type: in vivo, New Zealand White rabbits; conditions: New Zealand White, rabbit, plasma, topical, 1.2 mg/eye, topical ocular 1.2 mg/eye (~0.7 mg/kg/dose); 1.0 hr; read-out: plasma Average
Where a name gives a salt, the structure may show the parent alone.
endpoint: concentration at 1 h (ng/mL)
// units = ng/mL; emit number, no label

Name the reported concentration at 1 h value associated with the compound COC(=O)N[C@@H](Cc1ccccc1)C(=O)N[C@@H](Cc1ccc(NS(=O)(=O)O)cc1)c1csc(-c2cccs2)n1 [Compound 1 sodium salt]
1.46

###

experiment: Ocular tissue concentrations (aqueous humor, vitreous humor, iris, retina, choroid, cornea) after topical ocular, subcutaneous and intravitreal administration; type: in vivo, New Zealand White rabbits; conditions: New Zealand White, rabbit, iris, other: intravitreal, 2.5 mg/eye, Iris, 48 hr, left eye, intravitreal 2.5 mg/eye (group 5), individual animals; read-out: Conc. (ng/g) OS
endpoint: concentration at 48 h (ng/g)
Answer with a number only, understood to be in ng/g.

Fill in: concentration at 48 h of COC(=O)N[C@@H](Cc1ccccc1)C(=O)N[C@@H](Cc1ccc(NS(=O)(=O)O)cc1)c1csc(-c2cccs2)n1 is ___
21400
